target: Cytochrome P450 2C9 (Homo sapiens) (UniProt P11712); test: Cytochrome P450 Family 2 Subfamily C Member 9 (CYP2C9) small molecule antagonists: luciferase reporter qHTS assay (AID 1671198); details: P450-Glo CYP2C9 enzyme assay, luciferin luminescence; series mostly up to 115 µM; note: nearly all actives have a fitted effect of over 50% in size
Sequence (P11712 whole entry, looked up): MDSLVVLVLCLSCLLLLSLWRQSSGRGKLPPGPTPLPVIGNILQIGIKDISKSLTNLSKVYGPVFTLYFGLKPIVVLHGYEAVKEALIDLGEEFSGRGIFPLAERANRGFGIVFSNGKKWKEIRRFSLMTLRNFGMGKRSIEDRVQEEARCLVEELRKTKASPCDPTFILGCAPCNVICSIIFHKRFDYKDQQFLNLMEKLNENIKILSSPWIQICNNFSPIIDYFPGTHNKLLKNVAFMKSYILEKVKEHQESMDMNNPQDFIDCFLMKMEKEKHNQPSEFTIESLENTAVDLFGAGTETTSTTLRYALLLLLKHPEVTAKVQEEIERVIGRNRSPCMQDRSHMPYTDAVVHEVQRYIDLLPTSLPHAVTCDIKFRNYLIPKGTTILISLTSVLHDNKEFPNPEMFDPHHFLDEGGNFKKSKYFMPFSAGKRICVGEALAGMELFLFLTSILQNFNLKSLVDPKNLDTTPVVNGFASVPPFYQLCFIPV
Results filed as inconclusive are left out. Activity calls are given as the source filed them. Calls come from the whole dose curve; as a rule, active = well fitted inhibition curve with a large enough effect in the repeat runs; inconclusive = weak or mixed curves; inactive = no such curve, though single readings can be large or run the other way.
Return exactly one item of active, inactive

Qu. Which outcome did this test record for the compound COc1ccc(CCC(=O)c2c(O)cc(O[C@@H]3O[C@H](CO)[C@@H](O)[C@H](O)[C@H]3O[C@@H]3O[C@@H](C)[C@H](O)[C@@H](O)[C@H]3O)cc2O)cc1O ?
Ans. active

Next:
Qu. Please share the test call associated with CC(C)OCC1CO1 (stereo not drawn) .
Ans. inactive

Qu. GET /call?item= CCn1nc(C)c2c1C(=O)NCC(c1ccc(O)cc1)=N2 returns the recorded outcome of this test.
Ans. active

###

assay: Caspase-3/7 induction in HepG2 cells by small molecules, qHTS cell viability counter screen (AID 1346981); settings: CellTiter-Fluor fluorescence, 17 h; series mostly up to 92.4 µM; note: nearly all actives have a fitted effect of over 30% in size
Results filed as inconclusive are left out. Calls of active or inactive are those of the source. Calls come from the whole dose curve; as a rule, active = well fitted cell-killing curve with a large enough effect in the repeat runs; inconclusive = weak or mixed curves, or effect the other way; inactive = flat fitted curve, though single readings scatter.
Permitted responses: class 1 (active), class 0 (inactive)

Qu. What outcome does the record of this test show for O=C(N[C@@H](c1ccccc1)[C@@H]1CCCCN1)c1cccc(C(F)(F)F)c1Cl ?
Ans. class 1

Qu. Query: recorded result category for CN1CCCN=C1/C=C/c1cccs1 in this test
Ans. class 0

New cases:
Qu. Short answer needed: outcome of this test for O=C(CCC1CCN(Cc2ccccc2)CC1)c1ccc2c(c1)NCCCC2 ?
Ans. class 0

Qu. Could you check what this test reported for CCCCCCOC(=O)CCCCCCCC(=O)OCCCCCC ?
Ans. class 0

Qu. Each compound tested received a call. Report the one for CSc1ccc(Oc2ccc(S(N)(=O)=O)cc2CN(C)C)cc1C .
Ans. class 0

Qu. What call does the record list for Cc1cc(O)c2c(O)c3c(O)cccc3cc2c1 ?
Ans. class 0

Qu. I'd appreciate the recorded outcome for O=C(NCCCN1CCOCC1)c1ccc(Cl)cc1 from this test.
Ans. class 0

Qu. How did this test come out for CCOC(=O)c1ccccc1C ?
Ans. class 0

Qu. For CCNC(=O)N1CCN(CCCC(c2ccc(F)cc2)c2ccc(F)cc2)CC1 , what call appears in the results of this test?
Ans. class 1

Qu. Can you look up the reported call for C=CC(C)(O)CCCC(C)CCCC(C)CCCC(C)C (configuration not stated) for me?
Ans. class 0

Qu. How was Cc1ccc(S(=O)(=O)NC2CCCCC2)cc1 classified in this test?
Ans. class 0

Qu. What did the test return for Brc1cc(-c2ccc(Br)c(Br)c2Br)cc(Br)c1Br ?
Ans. class 0

Qu. I'd appreciate the recorded outcome for CC(=N\O)/C(C)=N/O from this test.
Ans. class 0

Qu. Dear all, I need the recorded test outcome for CC(=O)Nc1ccccc1C , thank you.
Ans. class 0

Qu. For O=C(O)c1cccc(O)c1 , which call appears in the assay record?
Ans. class 0

###

test: qHTS assay to test for compound auto fluorescence at 590 nm (red) in HEK293 cells (AID 720679); conditions: red autofluorescence 540/590 nm; series mostly up to 91.3 µM; note: % is set by controls: 0 for no effect and ±100 for the full control effect
Calls of active or inactive are those of the source. Calls come from the whole dose curve; as a rule, active = well fitted curve in the direction sought with a large enough effect in the repeat runs; inconclusive = weak or mixed curves; inactive = flat fitted curve, though single readings scatter.
OUTCOME_MEASURE: fluorescence, % of fluorescent control

// known answers, use as guide
The reported fluorescence, % of fluorescent control of the compound CC[C@@H]([C@H](C)O)n1ncn(-c2ccc(N3CCN(c4ccc(OC[C@@H]5CO[C@@](Cn6cncn6)(c6ccc(F)cc6F)C5)cc4)CC3)cc2)c1=O was inactive

Sure, the documented fluorescence, % of fluorescent control for CCCCC(CC)COC(=O)COc1ccc(Cl)cc1C (stereo not drawn) is inactive

Documented fluorescence, % of fluorescent control of Cc1ccc(Nc2nccc(N(C)c3ccc4c(C)n(C)nc4c3)n2)cc1S(N)(=O)=O : inactive

Kindly note the recorded fluorescence, % of fluorescent control for CCC(=O)OC/C=C/c1ccccc1 , which is inactive

More entries:
For reference, reported fluorescence, % of fluorescent control for CC(C)(C)CC(C)(C)c1ccc(OCCO)cc1 stands at inactive

Per the records, this compound ( NC(=O)Cn1c(=O)cc(CCN2CCN(c3nccc4sccc34)CC2)c2ccc(F)cc21 ) has fluorescence, % of fluorescent control equal to inactive

Reported fluorescence, % of fluorescent control of CCOC(=O)c1ccccc1OC : inactive

###

assay: qHTS assay to identify small molecule antagonists of the estrogen related receptor (ERR) signaling pathway from Tox21 library - cell viability counter screen (AID 1224834); details: ERR reporter cells viability, CellTiter-Fluor, 17.5 h; series mostly up to 92.4 µM; note: nearly all actives have a fitted effect of over 30% in size
Inconclusive results are not listed. Activity calls are given as the source filed them. The call rests on the fitted dose curve; in most records, active means well fitted cell-killing curve with a large enough effect in the repeat runs; inconclusive means weak or mixed curves; inactive means flat fitted curve, though single readings scatter.
Can you answer with just one of these options? active, inactive

Qu. Status in this test for CC(C)(C)CC(C)(C)c1ccc(OCCO)cc1 ?
Ans. active

Qu. Hey, what did the test say about CC#N ?
Ans. inactive

Qu. Lab log entry: C[N+]1(C)CCC(=C(c2ccccc2)c2ccccc2)CC1 — outcome as called in the assay?
Ans. inactive

Qu. // outcome(item) with item = C(=C\c1ccccc1)/CN1CCN(C(c2ccccc2)c2ccccc2)CC1
Ans. inactive

Qu. Could you please tell me the result logged for CC(N)CN (centres undefined) in this assay?
Ans. inactive

Pending compound:
Qu. Which outcome was assigned to NC(=O)N(O)[C@@H]1C=C[C@H](Oc2cccc(Oc3ccc(F)cc3)c2)C1 in this test?
Ans. inactive

###

assay: qHTS assay to identify small molecule agonists of the androgen receptor (AR) signaling pathway in the presence of an antagonist - cell viability counter screen (AID 1259379); details: MDA-kb2 viability, CellTiter-Fluor, 16 h; series mostly up to 92.4 µM;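 note: MDA-kb2 human breast cancer cells carrying an MMTV luciferase reporter; % is set by controls: 0 for no effect and ±100 for the full control effect; nearly all actives have a fitted effect of over 25% in size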
Results filed as inconclusive are left out. The source made the active and inactive calls. The call rests on the fitted dose curve; in most records, active means well fitted cell-killing curve with a large enough effect in the repeat runs; inconclusive means weak or mixed curves, or effect the other way; inactive means flat fitted curve, though single readings scatter.
OUTCOME_MEASURE: activity change, negative = cytotoxicity

// below: answered compounds
Recorded result, CC1CN(c2cc3c(cc2F)c(=O)c(C(=O)O)cn3-c2ccc(F)cc2F)CCN1 (stereo not given) , activity change, negative = cytotoxicity: 0.826% [at 8.39 µM] (inactive)

// field: activity change, negative = cytotoxicity; key: CN1CCN(c2c(F)cc3c(=O)c(C(=O)O)cn4c3c2OCN4C)CC1 ; value = 0.471% [at 19 µM] (inactive)

Value of activity change, negative = cytotoxicity reported for the compound CCCCCCCCCCCCCCCCBr is 1.54% [at 19 µM] (inactive)

# activity change, negative = cytotoxicity of C=CCCCCCCCCCCCCCCCC = 0.762% [at 8.39 µM] (inactive)

With those in mind, consider the next compound.
Documented activity change, negative = cytotoxicity of CCCC(=O)O[C@]1(C(=O)COC(=O)CC)CC[C@H]2[C@@H]3CCC4=CC(=O)CC[C@]4(C)[C@H]3[C@@H](O)C[C@@]21C : 0.279% [at 19 µM] (inactive)

###

Experiment: qHTS assay to identify small molecule agonists of the sonic hedgehog signaling (Shh) pathway (AID 1259368);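 note: NIH/3T3-derived 3T3Gli1-Luc cells carrying a stable Gli1-driven firefly luciferase reporter; % is set by controls: 0 for no effect and ±100 for the full control effect; nearly all actives have a fitted effect of over 15% in size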
Conditions: NIH/3T3 Gli1-Luc reporter, luciferase, 24 h; series mostly up to 92.4 µM
Description: National Center for Advancing Translational Sciences [NCATS] NIH Chemical Genomics Center [NCGC] U.S. Environmental Protection Agency [EPA] National Institutes of Environmental Health Sciences [NIEHS] National Toxicology Program [NTP] The sonic hedgehog (Shh) pathway is essential for normal embryonic development. Dysregulation of the Shh pathway can cause severe developmental defects in organs. Therefore chemicals that interfere with the pathway are potential developmental toxicants. […]
Calls of active or inactive are those of the source. Calls come from the whole dose curve.
OUTCOME_MEASURE: activity change

Record CC1=NN(c2ccc(C(=O)O)cc2)C(=O)C1 . Reported activity change: inactive

activity change recorded for this compound, O=C(N/N=C/c1ccc([N+](=O)[O-])o1)c1ccc(O)cc1 , is inactive

Measured activity change of CC(=O)Nc1ccccc1C : inactive

Value of measured activity change for the entry CCC1(C)CC(=O)NC1=O (stereo not drawn) : inactive

More entries:
activity change in this record for CC(C)(CCl)c1ccccc1 : inactive

The recorded activity change for Nc1nc(Cl)nc2c1ncn2[C@@H]1O[C@H](CO)[C@@H](O)[C@@H]1F is inactive

// field: activity change; key: CCOC(=O)[C@@H](C)Oc1ccc(Oc2nc3ccc(Cl)cc3o2)cc1 ; value = inactive

Data point: CC1(C)C2=CCCC(C)(C)[C@]23CC[C@H]1C3 ; activity change = inactive

###

experiment: qHTS assay to identify small molecule antagonists of the sonic hedgehog signaling (Shh) pathway (AID 1259369); conditions: NIH/3T3 Gli1-Luc reporter, Shh antagonist, luminescence 24 h; series mostly up to 92.4 µM; note: nearly all actives have a fitted effect of over 45% in size
Records with an inconclusive call do not appear. Calls of active or inactive are those of the source. Calls follow the shape of the full dose curve.
Can you answer with just one of these options? active, inactive

Look over these answered cases.
Qu. Check the results log: what was the call for C[Si](NC1CCCCC1)(NC1CCCCC1)NC1CCCCC1 ?
Ans. inactive

Qu. # fetch the recorded call for COc1cc2ncnc(Nc3ccc(F)c(Cl)c3)c2cc1OCCCN1CCOCC1 here
Ans. active

Qu. GET /call?item= CN1C(=O)CC(C)(c2ccccc2)C1=O (configuration not stated) returns the recorded outcome of this test.
Ans. inactive

Qu. Dear colleague, could you share the recorded outcome for CC(=O)Oc1ccc2c(c1)CC[C@@H]1[C@@H]2CC[C@]2(C)[C@@H](O)CC[C@@H]12 when you have a moment?
Ans. active

Qu. Which outcome was assigned to CCCCCCCCCCCC[N+](C)(C)CC(=O)[O-] in this test?
Ans. inactive

Further cases:
Qu. # fetch the recorded call for O=C(NCCCN1CCOCC1)c1ccc(Cl)cc1 here
Ans. inactive

Qu. # outcome recorded in this test, key = O=C(C(=O)c1ccccc1)c1ccccc1
Ans. inactive

Qu. Test call for this compound, please: CC(C)=CC=O
Ans. inactive

Qu. Per the records of this test, what outcome belongs to C[N+](C)(C)CCOC(N)=O ?
Ans. inactive

Qu. Any idea what this test logged for O=c1[nH]c2ccc(S(=O)CCN3CCC(Cc4ccc(F)cc4)CC3)cc2o1 (configuration not stated) ?
Ans. inactive

Qu. Recorded test outcome, item Nc1nc(Cl)nc2c1ncn2[C@@H]1O[C@H](CO)[C@@H](O)[C@@H]1F
Ans. active

Qu. Please indicate how the test categorized CC(C)(C)CC(C)(C)c1ccc(OCCO)cc1 .
Ans. active

From: PubChem BioAssay (Tox21)
